measurement.protocol: Antioxidant activity assessed as inhibition of Fe3+/ascorbic acid-induced hydroxyl radical formation by measuring DMSO-induced formaldehyde production at 100 uM after 30 mins relative to control
Assay type: functional
The source made the active and inactive calls. No cut-off for these calls is given here.
reported.metric: inhibition

Solved cases (5 shown):
                                   molecule  reported_metric  measurement
0  CCCCCCCCCCCCCCCCS(=O)(=O)O/N=C(\N)c1ccc([N+](=O)[O-])cc1       inhibition         100%
1          N=C(NOS(=O)(=O)c1ccccc1)c1ccncc1       inhibition          44%
2           N/C(=N\O)c1ccc([N+](=O)[O-])cc1       inhibition          85%
3          N=C(NOS(=O)(=O)c1ccccc1)c1cccnc1       inhibition          28%
4          N=C(NOS(=O)(=O)c1ccccc1)c1ccccn1       inhibition          32%

Prompt line: Quick one: inhibition of CCCCCCCCCCS(=O)(=O)O/N=C(\N)c1ccc([N+](=O)[O-])cc1 ?
Response line: 48%

Prompt line: Quick one: inhibition of Cc1ccc(S(=O)(=O)O/N=C(\N)c2cccnc2)cc1 ?
Response line: 95%

Prompt line: Quick one: inhibition of N/C(=N\OS(=O)(=O)c1ccc([N+](=O)[O-])cc1)c1cccnc1 ?
Response line: 18%

Prompt line: Quick one: inhibition of CCCS(=O)(=O)O/N=C(\N)c1ccc([N+](=O)[O-])cc1 ?
Response line: 75%

Prompt line: Quick one: inhibition of N/C(=N\OS(=O)(=O)c1ccccc1)c1ccc([N+](=O)[O-])cc1 ?
Response line: 34%

Prompt line: Quick one: inhibition of N/C(=N\O)c1cccnc1 ?
Response line: 60%

Prompt line: Quick one: inhibition of CCCCCCCCCCS(=O)(=O)O/N=C(\N)c1ccccn1 ?
Response line: 79%

Prompt line: Quick one: inhibition of Cc1ccc(S(=O)(=O)O/N=C(\N)c2ccccn2)cc1 ?
Response line: 72%

Prompt line: Quick one: inhibition of CCCCCCCCCCCCCCCCS(=O)(=O)O/N=C(\N)c1cccnc1 ?
Response line: 69%

Prompt line: Quick one: inhibition of N/C(=N\OS(=O)(=O)c1ccc([N+](=O)[O-])cc1)c1ccc([N+](=O)[O-])cc1 ?
Response line: inactive

Prompt line: Quick one: inhibition of CCCCCCCCCCCCCCCCS(=O)(=O)O/N=C(\N)c1ccccn1 ?
Response line: inactive

Prompt line: Quick one: inhibition of CCCCCCCCCCS(=O)(=O)O/N=C(\N)c1ccncc1 ?
Response line: 70%

Prompt line: Quick one: inhibition of CCCCCCCCCCS(=O)(=O)O/N=C(\N)c1cccnc1 ?
Response line: 72%

Prompt line: Quick one: inhibition of CCCS(=O)(=O)O/N=C(\N)c1ccncc1 ?
Response line: 66%

Source listed as ChEMBL document CHEMBL3259725.
